system: HL-60; experiment: NCI tumour cell line growth inhibition, 48 h
Calls of active or inactive are those of the source. Rule as the data show it: active = GI50 up to about 1.1 µM and inactive = higher.
Classes used: True = active, False = inactive

>  <molecule>
C/C=C1\CC(C(=O)OCC)CCCCCCCCCCC1=O (configuration not stated)

>  <answerLabel>
False

$$$$
>  <molecule>
Fc1cccc2cc3ccc4cccc5ccc(c12)c3c45

>  <answerLabel>
False

$$$$
>  <molecule>
C1=Cc2nc1c(-c1ccccc1)c1nc(c(-c3ccccc3)c3ccc([nH]3)c(-c3ccccc3)c3ccc([nH]3)c2-c2ccccc2)C=C1

>  <answerLabel>
False

$$$$
>  <molecule>
Cc1ccc2nc(-c3nccn3C)cc(C(=O)NC(C)CN(C)C)c2c1 (configuration not stated)

>  <answerLabel>
False

$$$$
>  <molecule>
CCOC(=O)c1nc2ccc(C(F)(F)F)cc2[nH]c1=O

>  <answerLabel>
False

$$$$
>  <molecule>
Cc1ccc(-c2cc[n+]3c(n2)oc2ccccc23)cc1

>  <answerLabel>
False

$$$$
>  <molecule>
NC1CCC(c2cc3ccccc3s2)(N2CCCCC2)CC1 (configuration not stated)

>  <answerLabel>
False

$$$$
>  <molecule>
COc1ccc(NCc2cc(OC)c(OC)c(OC)c2)cc1

>  <answerLabel>
True

$$$$
>  <molecule>
CC1CCSC(N(C(=O)N(C)c2ccccc2)c2ccccc2)=N1 (configuration not stated)

>  <answerLabel>
False

$$$$
>  <molecule>
O=C1[C@@H]2C(c3ccncc3)=NO[C@@H]2C(=O)N1c1ccc(Cc2ccc(N3C(=O)[C@H]4C(c5ccncc5)=NO[C@H]4C3=O)cc2)cc1

>  <answerLabel>
False

$$$$
>  <molecule>
OC1=CN=C(c2ccccc2)Oc2ccccc21

>  <answerLabel>
False

$$$$
>  <molecule>
C#CCN(C(=O)C(F)(F)F)C(/C=C\C(=O)OC)(C(=O)OCC)C(=O)OCC

>  <answerLabel>
False

$$$$
>  <molecule>
COc1ccc2c(c1)CCc1[nH]c3ccccc3c1CCCC2

>  <answerLabel>
False

$$$$
>  <molecule>
NC(=O)NC1C(C(=O)O)N(Cc2ccccc2)C(=O)N1Cc1ccccc1 (configuration not stated)

>  <answerLabel>
False

$$$$
>  <molecule>
CNC(=O)OC(C)CN1c2ccccc2Sc2ccc(Cl)cc21 (configuration not stated)

>  <answerLabel>
False

$$$$
>  <molecule>
CCOC(=O)C=C1CCN(C(=O)c2ccccc2)CC1

>  <answerLabel>
False

$$$$
>  <molecule>
C/C(=N\Nc1nc2cccnc2s1)c1ccccn1

>  <answerLabel>
True

$$$$
>  <molecule>
C[n+]1c2ccccc2cc2c(CNC(CCCNC(=N)N)C(=O)O)cccc21 (configuration not stated)

>  <answerLabel>
True

$$$$
>  <molecule>
COc1ccc2c(c1)/C(=C\c1c(C)nc3sc(C)cn13)C(=O)N2

>  <answerLabel>
True

$$$$
>  <molecule>
O=[N+]([O-])c1ccc(Cl)cc1C1SCc2nc3ccccc3n21 (configuration not stated)

>  <answerLabel>
False

$$$$
>  <molecule>
N/C(=N\O)N/N=C\c1ccc(O)c(O)c1O

>  <answerLabel>
False

$$$$
>  <molecule>
CCCCCC(=O)Cc1cc(OC)cc2c1C(=O)Oc1cc(O)c(C(=O)O)c(CC(=O)CCCCC)c1O2

>  <answerLabel>
False

$$$$
